# MEASURED_TARGET: UniProt:O00329
# Sequence (O00329 whole entry): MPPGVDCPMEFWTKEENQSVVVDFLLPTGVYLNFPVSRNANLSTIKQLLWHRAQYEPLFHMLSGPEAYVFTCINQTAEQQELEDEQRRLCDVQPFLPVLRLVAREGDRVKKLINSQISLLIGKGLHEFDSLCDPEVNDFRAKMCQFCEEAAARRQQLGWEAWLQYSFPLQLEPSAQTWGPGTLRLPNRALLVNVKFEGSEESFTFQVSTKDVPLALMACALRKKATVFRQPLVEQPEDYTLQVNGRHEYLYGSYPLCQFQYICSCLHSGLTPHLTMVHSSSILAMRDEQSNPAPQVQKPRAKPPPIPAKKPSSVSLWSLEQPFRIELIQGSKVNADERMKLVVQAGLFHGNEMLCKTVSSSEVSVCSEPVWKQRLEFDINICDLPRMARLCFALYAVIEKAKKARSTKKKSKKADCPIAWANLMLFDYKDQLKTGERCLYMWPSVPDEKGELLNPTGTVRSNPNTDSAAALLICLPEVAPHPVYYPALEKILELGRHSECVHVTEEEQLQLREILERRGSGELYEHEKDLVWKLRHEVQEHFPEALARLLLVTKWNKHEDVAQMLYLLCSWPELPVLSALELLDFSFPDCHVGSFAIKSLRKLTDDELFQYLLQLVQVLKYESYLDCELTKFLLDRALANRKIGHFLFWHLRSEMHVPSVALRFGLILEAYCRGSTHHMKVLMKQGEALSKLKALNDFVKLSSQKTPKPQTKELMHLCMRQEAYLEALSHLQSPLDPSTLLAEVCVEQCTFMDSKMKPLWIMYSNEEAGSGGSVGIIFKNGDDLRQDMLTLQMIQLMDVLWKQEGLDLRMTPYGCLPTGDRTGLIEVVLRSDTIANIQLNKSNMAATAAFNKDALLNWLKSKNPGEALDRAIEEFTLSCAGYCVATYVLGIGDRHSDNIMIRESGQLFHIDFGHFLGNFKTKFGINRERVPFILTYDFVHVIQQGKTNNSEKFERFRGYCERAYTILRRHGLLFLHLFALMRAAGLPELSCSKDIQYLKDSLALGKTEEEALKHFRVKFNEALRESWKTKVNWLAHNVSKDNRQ
# Sequence (P27986 whole entry partner): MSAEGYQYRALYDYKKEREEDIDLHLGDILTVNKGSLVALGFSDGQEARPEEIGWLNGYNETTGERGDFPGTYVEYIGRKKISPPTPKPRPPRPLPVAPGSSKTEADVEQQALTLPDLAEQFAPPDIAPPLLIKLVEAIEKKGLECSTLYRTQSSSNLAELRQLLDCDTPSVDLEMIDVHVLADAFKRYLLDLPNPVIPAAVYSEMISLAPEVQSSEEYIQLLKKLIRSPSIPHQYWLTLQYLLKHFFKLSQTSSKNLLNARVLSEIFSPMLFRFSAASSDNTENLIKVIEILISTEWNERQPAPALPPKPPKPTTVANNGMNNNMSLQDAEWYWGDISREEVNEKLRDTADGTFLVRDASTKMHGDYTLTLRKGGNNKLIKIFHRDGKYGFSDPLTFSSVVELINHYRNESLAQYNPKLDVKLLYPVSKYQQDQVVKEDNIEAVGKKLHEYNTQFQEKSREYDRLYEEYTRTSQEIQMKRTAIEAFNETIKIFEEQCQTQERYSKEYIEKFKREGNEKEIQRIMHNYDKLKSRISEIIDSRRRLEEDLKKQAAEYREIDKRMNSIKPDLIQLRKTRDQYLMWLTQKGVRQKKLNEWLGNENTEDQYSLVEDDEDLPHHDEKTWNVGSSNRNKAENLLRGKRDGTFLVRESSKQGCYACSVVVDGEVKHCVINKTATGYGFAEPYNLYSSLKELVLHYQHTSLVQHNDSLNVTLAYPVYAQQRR
READOUT: pIC50
Value format note: pIC50 is -log10 of concentration (mol/L); just state the number.

What the record says about CCOc1c([C@H](C)n2nc(C)c3c(N)ncnc32)cc(Cl)c(F)c1[C@@H]1CNC(=O)C1 [parsaclisib] : pIC50 is 9.00
